Item-by-item account of TM
assay: Circular dichroism wavelength scans and temperature melts (Tm); format: physicochemical; settings: optimized sequence

# molecule, recorded-measurement
measured = [
    ("InsulinR_mb (designed binder) MSHHHHHHHHSENLYFQSGGGDEELMELVYEAVEKNDPELLFEAWMELASLLDETGDPKIEEALGLLQQVDGGNPDAGRRIKELFK", "65 °C ° C."),
    ("FGFR2_mb (designed binder) MSHHHHHHHHSENLYFQSGGGDRRKEMDKVYRTAFKRITSTPDKEKRKEVVKEATEQLRRIAKDEEEKKKAAYMILFLKTLG", "71.1 ºC ° C."),
    ("MBP-tagged IGF1R_mb (designed binder, not shown: N-terminal 6 His-tag and MBP tag) STRNAEFIMLLLELCVKSKNDPQVQEYVKKVKKQVERLVGNGDEKKAEEVARKALEYCADG", ">95 °C"),
]

Task: Which TM value belongs to Tie2_mb (protein, left off: large carriers) SIDEELERLLEEAGVDPELIDDLYAVIYQLYIRGLSDKDVLRFLLENLERDGTPLRRVVEELLKR ?
Result: >95 °C

Task: One more molecule: EGFRc_mb (designed binder) MSHHHHHHHHSENLYFQSGGGSLDEAKKLLQEAEKLARKLNDRMELAYVEFLKHILETAKKQNDKRTIESVRDMARDALEELQS
Result: 71.2 °C

Task: One more molecule: PDGFR_mb (designed binder) MSHHHHHHHHSENLYFQSGGGDDERLATLAFRALIKRAGVKNLDVKVTNGKVRVTITGRDQASFKALQLVFALARRLGLQVQIDTR
Result: >95 °C

Task: One more molecule: EGFRn_mb (designed binder) MSHHHHHHHHSENLYFQSGGGDHWEEVFRWALEHLQEATQQNDPQKAKKILEEAHKWLRRELSEEEARAVVRWLKQLVDRELS
Result: >95 °C

Task: One more molecule: CD3δ_mb (designed binder) MSHHHHHHHHSENLYFQSGGGNHIACEIHNPEAAKEIAKVANVRRVYFIKQPGNRYFVLLKNADPEGVKKVRSKYNVRCVIRE
Result: >95 °C

Task: One more molecule: TGF-β_mb (designed binder) MSHHHHHHHHSENLYFQSGGGHCTIEVVGVDPEKVEAIAAAYGAEVCEKDGKFEIHLDDPHSAESAAVAISVLTNRPVRLQC
Result: >95 °C
